- TEST SYSTEM: JAK3 enzyme (Homo sapiens, UniProt P52333)
- Sequence (P52333 whole entry, species assumed): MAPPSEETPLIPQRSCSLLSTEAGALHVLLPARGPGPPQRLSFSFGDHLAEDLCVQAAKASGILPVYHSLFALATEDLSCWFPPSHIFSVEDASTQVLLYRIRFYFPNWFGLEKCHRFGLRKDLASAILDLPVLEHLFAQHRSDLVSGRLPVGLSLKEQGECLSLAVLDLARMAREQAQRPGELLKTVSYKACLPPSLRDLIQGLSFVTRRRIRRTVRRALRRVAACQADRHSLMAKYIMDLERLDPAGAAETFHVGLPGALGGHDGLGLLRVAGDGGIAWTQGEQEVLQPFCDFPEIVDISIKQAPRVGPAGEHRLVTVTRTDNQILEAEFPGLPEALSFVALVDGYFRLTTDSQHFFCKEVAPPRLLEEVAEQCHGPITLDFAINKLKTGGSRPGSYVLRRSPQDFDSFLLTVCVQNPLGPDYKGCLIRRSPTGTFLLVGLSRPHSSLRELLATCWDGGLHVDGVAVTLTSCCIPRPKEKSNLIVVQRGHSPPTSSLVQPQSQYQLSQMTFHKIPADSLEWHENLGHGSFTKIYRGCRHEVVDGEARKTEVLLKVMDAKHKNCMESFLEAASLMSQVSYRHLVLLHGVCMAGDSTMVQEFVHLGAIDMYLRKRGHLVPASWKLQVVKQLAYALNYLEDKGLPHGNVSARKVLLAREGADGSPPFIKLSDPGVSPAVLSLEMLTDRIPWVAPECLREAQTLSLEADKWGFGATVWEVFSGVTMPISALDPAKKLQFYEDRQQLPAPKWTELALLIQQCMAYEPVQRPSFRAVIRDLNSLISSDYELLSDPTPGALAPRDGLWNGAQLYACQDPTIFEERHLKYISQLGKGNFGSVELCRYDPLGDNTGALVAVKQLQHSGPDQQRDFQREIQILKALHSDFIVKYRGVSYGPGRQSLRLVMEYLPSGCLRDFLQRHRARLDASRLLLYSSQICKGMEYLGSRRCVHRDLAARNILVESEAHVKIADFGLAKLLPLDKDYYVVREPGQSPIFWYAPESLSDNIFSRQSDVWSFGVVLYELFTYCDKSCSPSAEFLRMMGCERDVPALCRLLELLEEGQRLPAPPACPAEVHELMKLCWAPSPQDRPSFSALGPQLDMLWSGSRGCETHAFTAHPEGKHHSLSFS
- ASSAY INFO: JAK Caliper Enzyme Assay at 4 μM ATP
- Assay type: biochemical
PROPERTY: IC50 (nM)

Worked cases, answers included:
C=CC(=O)N1C[C@H](COCCC#N)C[C@H](Nc2ncnc3[nH]ccc23)C1	0.219
C=CC(=O)N1CC[C@H](Nc2cnc3[nH]cc(C(=O)NCC(F)(F)F)c3n2)[C@H](OC)C1	0.68
C=CC(=O)N1CCN(c2cnc3[nH]cc(C(=O)N[C@@H]4C[C@H]4C(F)(F)F)c3n2)CC1	2.71
C=CC(=O)N1CC[C@H](CNc2cnc3[nH]cc(C(=O)N[C@H](C)COC)c3n2)C1 (single isomer, unassigned)	4.69
C=CC(=O)N1C[C@H](Nc2cnc3[nH]cc(C(=O)NCC)c3n2)[C@@](C)(C#N)C1	10.9

I. C=CC(=O)N1CCC(Oc2cnc3[nH]cc(C(=O)NCC4CC4)c3c2)CC1
II. C=CC(=O)N1CCC(Nc2cnc3[nH]cc(C(=O)NCc4sc(C(F)(F)F)nc4C)c3n2)CC1
Query :: Just curious, which one has the larger IC50 reading, I or II ? // caller expects the label of the chosen entry
Result :: I
(I: 75.1 nM, II: 0.481 nM)

a. C=CC(=O)N1CCC(Nc2cnc3[nH]cc(C(=O)NCCC(F)(F)F)c3n2)CC1C (racemic)
b. C=CC(=O)N1C[C@H](Nc2cnc3[nH]cc(C(=O)NCCOC)c3n2)[C@@](C)(C#N)C1
c. C=CC(=O)N1CCC(Nc2cnc3[nH]cc(C(=O)NCc4ccc(F)c(OC)c4)c3n2)CC1
d. C=CC(=O)N1CCC(Oc2cnc3[nH]cc(-c4n[nH]c(C)n4)c3n2)CC1
Query :: Reorder: IC50, max to min. State the ranking by listing the labels in the requested order.
Result :: d, b, a, c

P. C=CC(=O)N1CCC(COc2cnc3[nH]cc(C(=O)N[C@@H](C)COC)c3n2)C1 (mixture of isomers)
Q. C=CC(=O)N1C[C@H](Nc2cnc3[nH]cc(C(=O)NCCOC)c3n2)C[C@@H]1COC
R. C=CC(=O)N1CC[C@H](Nc2cnc3[nH]cc(C(=O)NCCCC(F)(F)F)c3n2)[C@H](OC)C1
Query :: Reorder: IC50, max to min. State the ranking by listing the labels in the requested order.
Result :: Q, P, R
(Q: 7.79 nM, P: 2.77 nM, R: 0.404 nM)

* * *

- TEST SYSTEM: JAK3 enzyme (Homo sapiens)
- ASSAY INFO: JAK Caliper Enzyme Assay at 1 mM ATP
- Format: biochemical
PROPERTY: IC50 (nM)

Worked cases, answers included:
C=CC(=O)N1CCC(Nc2cnc3[nH]cc(C(=O)NC4CCC4)c3n2)CC1C (racemic)	182
C=CC(=O)N1CC[C@H](CNc2cnc3[nH]cc(C(=O)N[C@@H](C)COC)c3n2)C1 (single isomer, unassigned)	96
C=CC(=O)N1CCC(Oc2cnc3[nH]cc(C(=O)N[C@@H]4CC[C@H](F)C4)c3n2)CC1	47

a. C=CC(=O)N1CCN(c2cnc3[nH]cc(C(=O)NCC(C)(C)C)c3n2)CC1
b. C=CC(=O)N1CCN(c2cnc3[nH]cc(C(=O)NC4CCCOC4)c3n2)CC1(C)C (racemic)
Query :: Just curious, which one has the larger IC50 reading, a or b ? // caller expects the label of the chosen entry
Result :: b

P. C=CC(=O)N1CCC(Oc2cnc3[nH]cc(C(=O)N[C@H]4CC[C@@H](F)C4)c3n2)CC1
Q. C=CC(=O)N1CCC(Nc2cnc3[nH]cc(C(=O)NCc4ccccc4)c3n2)CC1
R. C=CC(=O)N1CC[C@@H](Nc2cnc3[nH]cc(C(=O)NCC)c3n2)C1 [Example 234]
Query :: Order each entry by recorded IC50, climbing from the minimum. State the ranking by listing the labels in the requested order.
Result :: Q, P, R

P. C=CC(=O)N1CCN(c2cnc3[nH]cc(C(=O)NC4CCOC4)c3n2)CC1(C)C (racemic)
Q. C=CC(=O)N1CCC(Oc2cnc3[nH]cc(C(=O)NC4CC(F)(F)C4)c3n2)CC1
R. C=CC(=O)N1CCN(c2cnc3[nH]cc(C(=O)N[C@@H]4COC[C@@H]4CC(C)C)c3n2)CC1(C)C
Query :: Order each entry by recorded IC50, climbing from the minimum. State the ranking by listing the labels in the requested order.
Result :: Q, P, R

1. C=CC(=O)N1C[C@H](C)[C@H](Nc2cnc3[nH]cc(C(=O)NCCOC)c3n2)C1
2. C=CC(=O)N1CCC(Nc2cnc3[nH]cc(C(=O)NCc4ccc(-n5cccn5)cc4)c3n2)CC1
3. C=CC(=O)N1C[C@H](Nc2cnc3[nH]cc(C(=O)N[C@H](C)COC)c3n2)CC[C@@H]1C (single isomer, unassigned)
Query :: Order each entry by recorded IC50, climbing from the minimum. State the ranking by listing the labels in the requested order.
Result :: 2, 3, 1
